For each record, write down the corresponding residual activity.
Biological target: EPHA3 (human) (UniProt P29320)
Sequence (P29320 whole entry, looked up): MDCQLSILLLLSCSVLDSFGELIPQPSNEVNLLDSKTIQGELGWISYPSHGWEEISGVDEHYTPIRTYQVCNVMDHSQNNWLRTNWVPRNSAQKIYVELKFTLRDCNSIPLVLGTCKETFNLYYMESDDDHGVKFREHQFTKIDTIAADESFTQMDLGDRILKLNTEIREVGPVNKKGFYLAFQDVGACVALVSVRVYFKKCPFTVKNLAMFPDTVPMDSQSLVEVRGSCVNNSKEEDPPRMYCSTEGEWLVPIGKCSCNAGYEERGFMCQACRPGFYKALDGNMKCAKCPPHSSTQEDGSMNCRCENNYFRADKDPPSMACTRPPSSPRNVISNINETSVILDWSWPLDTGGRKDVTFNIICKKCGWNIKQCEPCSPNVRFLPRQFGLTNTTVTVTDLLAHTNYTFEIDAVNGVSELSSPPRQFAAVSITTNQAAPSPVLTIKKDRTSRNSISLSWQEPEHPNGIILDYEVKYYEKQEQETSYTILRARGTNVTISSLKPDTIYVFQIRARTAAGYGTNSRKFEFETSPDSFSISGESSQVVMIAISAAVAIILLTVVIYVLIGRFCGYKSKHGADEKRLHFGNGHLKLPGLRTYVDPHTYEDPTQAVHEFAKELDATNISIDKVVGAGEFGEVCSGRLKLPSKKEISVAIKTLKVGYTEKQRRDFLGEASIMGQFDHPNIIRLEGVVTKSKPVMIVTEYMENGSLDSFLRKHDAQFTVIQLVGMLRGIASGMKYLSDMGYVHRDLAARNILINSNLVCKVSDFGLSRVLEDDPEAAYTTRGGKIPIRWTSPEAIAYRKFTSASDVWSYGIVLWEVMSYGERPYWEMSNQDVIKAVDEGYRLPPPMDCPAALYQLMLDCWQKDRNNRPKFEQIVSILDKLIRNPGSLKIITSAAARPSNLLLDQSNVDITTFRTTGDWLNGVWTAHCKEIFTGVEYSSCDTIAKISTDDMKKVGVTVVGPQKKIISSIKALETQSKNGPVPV
Assay: radiometric filter-binding kinase assay, Kinase HotSpot
Conditions: compound 0.5 µM; ATP 10 µM
One number for each entry, in %.

Known results for compounds:
[
  {
    "compound": "CS(=O)c1ccc(-c2nc(-c3ccc(F)cc3)c(-c3ccncc3)[nH]2)cc1 (stereo not drawn)",
    "value.units": "%",
    "residual activity": 96.1
  },
  {
    "compound": "O=C(NC(NC(=S)Nc1ccc(F)c([N+](=O)[O-])c1)C(Cl)(Cl)Cl)C(c1ccccc1)c1ccccc1 (stereo not drawn)",
    "value.units": "%",
    "residual activity": 105
  },
  {
    "compound": "COc1cc2nccc(Oc3ccc(NC(=S)NC(=O)c4ccccc4C)cc3)c2cc1OC",
    "value.units": "%",
    "residual activity": 105
  }
]

Please state residual activity for every compound in the list that follows.
1. O=C1Cc2c([nH]c3ccc([N+](=O)[O-])cc23)-c2ccccc2N1
2. NC(=O)c1ccc(N(C(N)=O)c2c(F)cccc2F)nc1-c1ccc(F)cc1F
3. Nc1nc(Nc2ccc(S(N)(=O)=O)cc2)nn1C(=S)Nc1c(F)cccc1F

[97.8, 97, 85.9]

Please state residual activity for every compound in the list that follows.
1. C#Cc1cccc(Nc2ncnc3cc(OCCOC)c(OCCOC)cc23)c1
2. O=c1cc(-c2cccc3c2Sc2ccccc2S3)oc(N2CCOCC2)c1

1. 93.2
2. 119
